Attribute: Ki
targetUnderTest: Sigma non-opioid intracellular receptor 1 (Cavia porcellus)
Sequence (Q60492 whole entry): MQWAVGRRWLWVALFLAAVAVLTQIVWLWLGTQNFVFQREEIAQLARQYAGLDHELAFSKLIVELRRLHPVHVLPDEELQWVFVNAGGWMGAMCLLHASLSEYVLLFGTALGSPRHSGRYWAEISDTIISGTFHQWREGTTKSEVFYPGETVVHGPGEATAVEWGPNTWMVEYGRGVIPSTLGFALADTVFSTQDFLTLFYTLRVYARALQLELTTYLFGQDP
measurementDescription: Displacement of [3H]-(+)-pentazocine from sigma 1 receptor in guinea pig brain membranes
readoutName: Ki

molecule="COC(=O)N1CC2C(N3CCCC3)CCCC1CN2C(=O)Cc1ccc(Cl)c(Cl)c1 (stereo in doubt; 9)" targetundertest="Sigma non-opioid intracellular receptor 1 (Cavia porcellus)" readoutname=Ki result="> 1000 nM"
molecule="COc1ccc(CN2CC3CCCC(N4CCCC4)C2CN3Cc2ccccc2)cc1 (racemic)" targetundertest="Sigma non-opioid intracellular receptor 1 (Cavia porcellus)" readoutname=Ki result="531 nM"
molecule="O=C(Cc1ccc(Cl)c(Cl)c1)N1CC2CCCC(N3CCCC3)C1CN2Cc1ccccc1 (racemic; 26)" targetundertest="Sigma non-opioid intracellular receptor 1 (Cavia porcellus)" readoutname=Ki result="175 nM"
molecule="COc1ccc(CN2CC3CCCC(N4CCCC4)C2CN3Cc2ccccc2)cc1 (stereo in doubt; 25)" targetundertest="Sigma non-opioid intracellular receptor 1 (Cavia porcellus)" readoutname=Ki result="238 nM"
molecule="COC(=O)N1CC2C(N3CCCC3)CCCC1CN2C(=O)Cc1ccc(Cl)c(Cl)c1 (racemic)" targetundertest="Sigma non-opioid intracellular receptor 1 (Cavia porcellus)" readoutname=Ki result="452 nM"
molecule="O=C(Cc1ccc(Cl)c(Cl)c1)N1CC2CCCC(N3CCCC3)C1CN2Cc1ccccc1 (racemic; 14)" targetundertest="Sigma non-opioid intracellular receptor 1 (Cavia porcellus)" readoutname=Ki result="221 nM"
